Origin of measurements: patent US12516022B2

Assay Details: Time course of conversion to indirubin in FaSSGF at 37° C.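 Note: compound incubated in fasted state simulated gastric fluid, species in samples quantified by UPLC-MS with UV (210–400 nm) and ELS detection.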
Type: physicochemical
Condition Parameters: FaSSGF (Example 4; table title prints FaSSIF) 37° C., over a 24 hour period
Assign Conversion to indirubin to each entry below.

# example entries with known answers
>>> result("O=C1/C(=C2/C(=O)N(COS(=O)(=O)O)c3ccccc32)Nc2ccccc21 [drawing 277]")
"0-20%"
>>> result("CN(C)CCN(CCN(C)C)CN1C(=O)/C(=C2\\Nc3ccccc3C2=O)c2ccccc21 [drawing 271]")
"80-100%"
>>> result("CNCCNC(=O)N1C(=O)/C(=C2\\Nc3ccccc3C2=O)c2ccccc21.Cl [drawing 279]")
"0-20%"
>>> result("O=C1/C(=C2/C(=O)N(CN3CCC3)c3ccccc32)Nc2ccccc21 [drawing 275]")
"20-40%"
>>> result("O=C1/C(=C2/C(=O)N(CO)c3ccccc32)Nc2ccccc21 [drawing 274]")
"20-40%"
>>> result("CCN(CC)CN1C(=O)/C(=C2\\Nc3ccccc3C2=O)c2ccccc21 [drawing 267]")
"80-100%"

Now consider the entry below.
Exam item: Return value of Conversion to indirubin for input CN1CCN(CN2C(=O)/C(=C3\Nc4ccccc4C3=O)c3ccccc32)CC1 [drawing 273] , no commentary.
Marked response: 40-60%
